The values you see were collected from PubChem BioAssay AID1845206.

# Tested on: NCI-H1618 multicellular tumor spheroid viability
# test method notes: Anticancer human tumor NCI-H1618 cell line growth inhibition;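 note: spheroids exposed to agents for 7 days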
# details: curve of first compound; second compound 1 µM
Mark each entry 1 if its IC50 sits below 200 nM, and -1 for all others.

molecule | category label
COc1ccc([C@@H](O)c2cc(-c3ncnc4cc(N5CCOCC5)ccc34)c(F)cc2Cl)nn1 + Cn1nnc2c(C(N)=O)ncn2c1=O | -1
[2H]c1nc(C)nc([2H])c1-c1cc(NC[C@@H](C)c2cccc3c(C(=O)NC)ccnc23)ncn1 + Cn1nnc2c(C(N)=O)ncn2c1=O | -1
Cc1cc(C)c(CNC(=O)c2cc(-c3ccc(CN4CCOCC4)cc3)cc3c2cnn3C2CCCC2)c(=O)[nH]1 + Cn1nnc2c(C(N)=O)ncn2c1=O | -1

Q) State whether 200 nM exceeds IC50 recorded for O=C(c1cc(Cc2n[nH]c(=O)c3ccccc23)ccc1F)N1CCN(C(=O)C2CC2)CC1 + Cn1nnc2c(C(N)=O)ncn2c1=O .
A) 1

Q) hey, is IC50 for CC1COCCN1c1cc(-c2ccnn2C)c2ccnc(-c3ccn[nH]3)c2n1 (stereo not given) + Cn1nnc2c(C(N)=O)ncn2c1=O lower than 200 nM or not?
A) 1

Q) Lab log: compare recorded IC50 with 200 nM; is it strictly lower for Cc1sc2c(c1C)C(c1ccc(Cl)cc1)=NC(CC(=O)Nc1ccc(O)cc1)c1nnc(C)n1-2 (stereo not given) + Cn1nnc2c(C(N)=O)ncn2c1=O ?
A) -1

Q) Field: below-cutoff. Rule: recorded IC50 strictly less than 200 nM. Subject: COc1cc(C)[nH]c(=O)c1CN1CCc2c(Cl)cc(C(OC)C3COC3)c(Cl)c2C1=O (stereo not given) + Cn1nnc2c(C(N)=O)ncn2c1=O
A) -1

Q) Find out if reported IC50 for CC(C)n1c(=O)n(C)c2cnc3cc(F)c(-c4ccc(OCCCN5CCCCC5)nc4)cc3c21 + Cn1nnc2c(C(N)=O)ncn2c1=O is less than 200 nM
A) -1

Q) Does the reported IC50 of CNCc1ccc(-c2cc(-c3nc(-c4ccc(S(=O)(=O)C(C)C)cc4)cnc3N)on2)cc1 + Cn1nnc2c(C(N)=O)ncn2c1=O stay below 200 nM?
A) 1

Q) # TODO verify IC50 < 200 nM strictly for this molecule: Cn1ncnc1[C@H]1c2n[nH]c(=O)c3cc(F)cc(c23)N[C@@H]1c1ccc(F)cc1 + Cn1nnc2c(C(N)=O)ncn2c1=O
A) 1

###

# System: NCI-H1618 multicellular tumor spheroid viability
# test method notes: Anticancer human tumor NCI-H1618 cell line growth inhibition;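 note: spheroids exposed to agents for 7 days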
# details: curve of first compound; second compound 10 µM
# Experimental: Multicellular complex tumor spheroid response to DNA repair inhibitors in combination with DNA-damaging drugs This study explores the anticancer activities of DNA-damaging drugs and inhibitors of DNA damage repair, both as single agents and in combinations. […] Twenty-six patient-derived or established malignant cell lines were evaluated representing sarcoma, melanoma, small cell lung cancer (SCLC), non-small cell lung cancer (NSCLC), as well as bladder, ovarian and pancreatic cancers. […]
Below, each of the compounds is paired with its reported IC50 value.

Example entries begin here.
compound | study system | IC50
CNCc1ccc(-c2cc(-c3nc(-c4ccc(S(=O)(=O)C(C)C)cc4)cnc3N)on2)cc1 + Cn1nnc2c(C(N)=O)ncn2c1=O | NCI-H1618 multicellular tumor spheroid viability | < 9.49 nM
COc1cc(C)[nH]c(=O)c1CN1CCc2c(Cl)cc(C(OC)C3COC3)c(Cl)c2C1=O (stereo unspecified) + Cn1nnc2c(C(N)=O)ncn2c1=O | NCI-H1618 multicellular tumor spheroid viability | < 31.6 nM
Cc1cc(C)c(CNC(=O)c2cc(-c3ccc(CN4CCOCC4)cc3)cc3c2cnn3C2CCCC2)c(=O)[nH]1 + Cn1nnc2c(C(N)=O)ncn2c1=O | NCI-H1618 multicellular tumor spheroid viability | < 31.6 nM
CC(C)n1c(=O)n(C)c2cnc3cc(F)c(-c4ccc(OCCCN5CCCCC5)nc4)cc3c21 + Cn1nnc2c(C(N)=O)ncn2c1=O | NCI-H1618 multicellular tumor spheroid viability | < 31.6 nM
Cn1ncnc1[C@H]1c2n[nH]c(=O)c3cc(F)cc(c23)N[C@@H]1c1ccc(F)cc1 + Cn1nnc2c(C(N)=O)ncn2c1=O | NCI-H1618 multicellular tumor spheroid viability | < 9.49 nM

Now take the following compound into account.
Q) # query: IC50 of entry COc1ccc([C@@H](O)c2cc(-c3ncnc4cc(N5CCOCC5)ccc34)c(F)cc2Cl)nn1 + Cn1nnc2c(C(N)=O)ncn2c1=O
A) < 31.6 nM

###

viability, T/C listing for selected compounds.
# System: NCI-H1618 multicellular tumor spheroid viability
# test method notes: Anticancer human tumor NCI-H1618 cell line growth inhibition;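 note: spheroids exposed to agents for 7 days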
# details: second compound 3.16 µM; first compound 0.1 µM; stronger effect = lower value
Kindly provide the numeric value in % only, without the unit symbol.

compound | viability, T/C (%)
COc1cc(C)[nH]c(=O)c1CN1CCc2c(Cl)cc(C(OC)C3COC3)c(Cl)c2C1=O (stereo unspecified) + Cn1nnc2c(C(N)=O)ncn2c1=O | 16.2
Cc1cc(C)c(CNC(=O)c2cc(-c3ccc(CN4CCOCC4)cc3)cc3c2cnn3C2CCCC2)c(=O)[nH]1 + Cn1nnc2c(C(N)=O)ncn2c1=O | 13.1
CC(C)n1c(=O)n(C)c2cnc3cc(F)c(-c4ccc(OCCCN5CCCCC5)nc4)cc3c21 + Cn1nnc2c(C(N)=O)ncn2c1=O | 16.2

Q) So what does the record say about viability, T/C for [2H]c1nc(C)nc([2H])c1-c1cc(NC[C@@H](C)c2cccc3c(C(=O)NC)ccnc23)ncn1 + Cn1nnc2c(C(N)=O)ncn2c1=O ?
A) 29.5

Q) Name the recorded viability, T/C for CC1COCCN1c1cc(-c2ccnn2C)c2ccnc(-c3ccn[nH]3)c2n1 (stereo unspecified) + Cn1nnc2c(C(N)=O)ncn2c1=O .
A) 1.64

Q) What viability, T/C value was documented for this compound, COc1ccc([C@@H](O)c2cc(-c3ncnc4cc(N5CCOCC5)ccc34)c(F)cc2Cl)nn1 + Cn1nnc2c(C(N)=O)ncn2c1=O ?
A) 27.2

###

# System: NCI-H1618 multicellular tumor spheroid viability
# test method notes: Anticancer human tumor NCI-H1618 cell line growth inhibition;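 note: spheroids exposed to agents for 7 days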
# details: second compound 0.0949 µM; first compound 0.316 µM; stronger effect = lower value
value kind: viability, T/C (%)
// note: answer is a bare numeric in %

compound | viability, T/C (%)
COc1cc(C)[nH]c(=O)c1CN1CCc2c(Cl)cc(C(OC)C3COC3)c(Cl)c2C1=O (stereo unspecified) + CC[C@@]1(O)C(=O)OCc2c1cc1n(c2=O)Cc2cc3c(CN(C)C)c(O)ccc3nc2-1 | 2.48
COc1ccc([C@@H](O)c2cc(-c3ncnc4cc(N5CCOCC5)ccc34)c(F)cc2Cl)nn1 + CC[C@@]1(O)C(=O)OCc2c1cc1n(c2=O)Cc2cc3c(CN(C)C)c(O)ccc3nc2-1 | 6.24

Q) Missing value: viability, T/C, NCI-H1618 multicellular tumor spheroid viability, entry CC1COCCN1c1cc(-c2ccnn2C)c2ccnc(-c3ccn[nH]3)c2n1 (stereo unspecified) + CC[C@@]1(O)C(=O)OCc2c1cc1n(c2=O)Cc2cc3c(CN(C)C)c(O)ccc3nc2-1 . Fill in?
A) 5

Q) NCI-H1618 multicellular tumor spheroid viability / viability, T/C / Cc1cc(C)c(CNC(=O)c2cc(-c3ccc(CN4CCOCC4)cc3)cc3c2cnn3C2CCCC2)c(=O)[nH]1 + CC[C@@]1(O)C(=O)OCc2c1cc1n(c2=O)Cc2cc3c(CN(C)C)c(O)ccc3nc2-1 : value?
A) 1.43

Q) Form field: viability, T/C recorded for [2H]c1nc(C)nc([2H])c1-c1cc(NC[C@@H](C)c2cccc3c(C(=O)NC)ccnc23)ncn1 + CC[C@@]1(O)C(=O)OCc2c1cc1n(c2=O)Cc2cc3c(CN(C)C)c(O)ccc3nc2-1 with NCI-H1618 multicellular tumor spheroid viability (enter value)
A) 3.24

Q) Missing value: viability, T/C, NCI-H1618 multicellular tumor spheroid viability, entry CC(C)n1c(=O)n(C)c2cnc3cc(F)c(-c4ccc(OCCCN5CCCCC5)nc4)cc3c21 + CC[C@@]1(O)C(=O)OCc2c1cc1n(c2=O)Cc2cc3c(CN(C)C)c(O)ccc3nc2-1 . Fill in?
A) 8.33

###

In this section, each of the molecules is paired with its reported viability, T/C.
# System: NCI-H1618 multicellular tumor spheroid viability
# test method notes: Anticancer human tumor NCI-H1618 cell line growth inhibition;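 note: spheroids exposed to agents for 7 days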
# details: second compound 94.9 pM; first compound 1 µM; stronger effect = lower value

molecule | viability, T/C
Cc1cc(C)c(CNC(=O)c2cc(-c3ccc(CN4CCOCC4)cc3)cc3c2cnn3C2CCCC2)c(=O)[nH]1 + COc1cc2c(cc1O)CCNC21CSC2c3c(OC(C)=O)c(C)c4c(c3C(COC1=O)N1C(O)C3Cc5cc(C)c(OC)c(O)c5C(C21)N3C)OCO4 | 55%

Consider now this further molecule.
Q) Provide value of viability, T/C for this record tested with NCI-H1618 multicellular tumor spheroid viability: COc1cc(C)[nH]c(=O)c1CN1CCc2c(Cl)cc(C(OC)C3COC3)c(Cl)c2C1=O (configuration not stated) + COc1cc2c(cc1O)CCNC21CSC2c3c(OC(C)=O)c(C)c4c(c3C(COC1=O)N1C(O)C3Cc5cc(C)c(OC)c(O)c5C(C21)N3C)OCO4
A) 57.5%
